Values from patent US11993574B2

test-target: UniProt P51449
Sequence (P51449 269-508 limits assumed): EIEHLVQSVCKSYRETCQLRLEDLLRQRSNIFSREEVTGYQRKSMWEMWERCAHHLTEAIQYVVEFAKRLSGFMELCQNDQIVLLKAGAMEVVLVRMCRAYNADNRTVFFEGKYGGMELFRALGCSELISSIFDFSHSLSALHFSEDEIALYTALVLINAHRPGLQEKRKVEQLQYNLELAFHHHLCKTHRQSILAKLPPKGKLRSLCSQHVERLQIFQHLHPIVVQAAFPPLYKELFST
method: RORγ assay (GAL4-RORγ hybrid luciferase reporter, Indigo Biosciences)
Assay type: cell-based
setup-conditions: inverse-agonist activity, GAL4-RORγ reporter cells, 23 hours
metric-name: IC50 (nM)

test-smiles: CC(C)c1ccc(-c2nc3c(n2C2CC2)CC[C@@H]2[C@@H](C)C(=O)C(C#N)=C[C@@]32C)cc1
IC50 (nM): 150

P. C[C@H]1C(=O)C(C#N)=C[C@@]2(C)c3c(c(-c4cccnc4)nn3-c3ccc(-c4ccccc4)cc3)CC[C@H]12
Q. C[C@H]1C(=O)C(C#N)=C[C@@]2(C)c3nc(-c4ccnc5ccccc45)n(-c4cccnc4)c3CC[C@H]12
R. CC(C)c1ncc(-c2nc3c(n2-c2cccc(F)c2)CC[C@@H]2[C@@H](C)C(=O)C(C#N)=C[C@@]32C)cn1
Could you please sort these 3 entries by IC50 from high to low? Put the labels in the order asked and list them.
Q, R, P
